// compounds with Ki on 5-hydroxytryptamine receptor 2A (Rattus norvegicus), multi-source literature
Label key: Satisfied means Ki under 50 nM; Not satisfied means Ki of 50 nM or more.

q: Given the entry Cc1cccc(N2CCN(CCCCCCN3CCN(c4ccccc4)CC3)CC2)n1 , would its reported Ki be below 50 nM?
a: Satisfied

Next:
q: Given the entry Cc1nc2ccccn2c1CN1CCN(c2ccc(Cl)cc2)CC1 , would its reported Ki be below 50 nM?
a: Not satisfied

q: Given the entry Cc1cc(=O)oc2cc(OCCCCCN3CCC(c4noc5cc(F)ccc45)CC3)ccc12 , would its reported Ki be below 50 nM?
a: Not satisfied

q: Given the entry Nc1ccc(OC(CCC(=O)C2CCN(c3ccc(F)cc3)CC2)c2ccc(F)cc2)cc1 (configuration not stated) , would its reported Ki be below 50 nM?
a: Satisfied

q: Given the entry Cc1cc(-c2nc3ccccc3o2)ccc1OCCCN1CCC(c2noc3cc(F)ccc23)CC1 , would its reported Ki be below 50 nM?
a: Satisfied

q: Given the entry O=C(CC1CC2CCC1C2)N[C@H]1CC(=O)N(CCCCN2CCN(c3cccc(Cl)c3)CC2)C1=O (some centres not stated) , would its reported Ki be below 50 nM?
a: Satisfied

q: Given the entry O=C(c1ccccc1)N1CCN(CCCCc2ccccc2)CC1 , would its reported Ki be below 50 nM?
a: Not satisfied

q: Given the entry CN1C(=N)NC(=O)/C1=C\c1c[nH]c2c(Br)cccc12 , would its reported Ki be below 50 nM?
a: Not satisfied

q: Given the entry CN1CCc2ccc(OCCCN3CCC(c4noc5cc(F)ccc45)CC3)cc2C1=O , would its reported Ki be below 50 nM?
a: Satisfied

q: Given the entry O=C(NCCCCN1CCN(c2cccc(Cl)c2)CC1)c1cc2ccccc2cn1 , would its reported Ki be below 50 nM?
a: Satisfied

----------
// compounds with Ki on UniProtKB P14842, multi-source literature

// worked examples, Ki included
q: What value of Ki has been reported for the following compound? N[C@@]1(C(=O)O)C[C@H](C(=O)O)C[C@@H]1C(=O)O
a: > 50000 nM

q: What value of Ki has been reported for the following compound? O=S(=O)(c1ccccc1)C1(CCCN2CCc3ccccc3C2)CCC1
a: 65 nM

q: What value of Ki has been reported for the following compound? O=C1NC(c2ccccc2)(C2CC2)C(=O)N1CCCN1CCN(c2cccc(Cl)c2)CC1 (racemic)
a: 78 nM

Kindly consider the entry below.
q: What value of Ki has been reported for the following compound? O=C(c1ccccc1)C1CCN(CCc2ccccc2)CC1
a: 9.6 nM

----------
pKi: −log10 of the molar value.
// molecules with pKi on 5-hydroxytryptamine receptor 2A (Rattus norvegicus, UniProt P14842), multi-source literature
Sequence (P14842 whole entry): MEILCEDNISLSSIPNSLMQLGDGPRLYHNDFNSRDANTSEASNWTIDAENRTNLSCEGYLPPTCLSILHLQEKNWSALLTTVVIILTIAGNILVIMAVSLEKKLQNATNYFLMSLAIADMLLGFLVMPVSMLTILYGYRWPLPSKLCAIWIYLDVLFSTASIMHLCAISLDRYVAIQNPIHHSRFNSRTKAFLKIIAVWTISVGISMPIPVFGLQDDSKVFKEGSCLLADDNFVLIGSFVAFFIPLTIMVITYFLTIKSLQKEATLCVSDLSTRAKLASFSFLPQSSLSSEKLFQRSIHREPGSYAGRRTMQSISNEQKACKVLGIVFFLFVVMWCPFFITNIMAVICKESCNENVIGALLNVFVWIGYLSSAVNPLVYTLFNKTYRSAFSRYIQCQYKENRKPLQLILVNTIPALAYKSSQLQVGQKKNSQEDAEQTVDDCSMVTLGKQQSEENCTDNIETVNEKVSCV
If the reported pKi equals or exceeds 7, assign met. If not, assign not met.

Record excerpt, results attached:
q: Threshold query (pKi >= 7) on O=C(NCCCN1CCN(c2ccccn2)CC1)c1ccccn1
a: not met

q: Threshold query (pKi >= 7) on CCCN(CCC)[C@H]1COc2cccc(C(=O)NC(C)C)c2C1
a: not met

q: Threshold query (pKi >= 7) on Cc1ccc2c3c(c(=O)oc2c1)CN(Cc1ccccc1)CC3
a: not met

q: Threshold query (pKi >= 7) on O=C1C2CCCN2C(=O)N1C/C=C/CNCC1CCc2ccccc2O1 (stereo not drawn)
a: not met

q: Threshold query (pKi >= 7) on CN1CCc2ccc(OCCCN3CCN(c4ccc5ccccc5n4)CC3)cc2C1=O
a: not met

Next:
q: Threshold query (pKi >= 7) on O=C(c1ccc(F)cc1)N1CCC(CN2CCC(c3noc4cc(F)ccc34)CC2)CC1
a: met

q: Threshold query (pKi >= 7) on CN1CCc2ccc(OCC(O)CN3CCC(c4noc5cc(F)ccc45)CC3)cc2C1=O (stereo not drawn)
a: not met

q: Threshold query (pKi >= 7) on CC(C)Oc1ccccc1OCCNCc1cccc(C2CCCC2)c1
a: not met

q: Threshold query (pKi >= 7) on O=C1C2C3C=CC(C3)C2C(=O)N1OCCCN1CCN(c2ccccn2)CC1 (stereo not drawn)
a: not met

q: Threshold query (pKi >= 7) on COc1ccccc1N1CCN(CCNC(=O)c2ccccn2)CC1
a: met

q: Threshold query (pKi >= 7) on COc1ccccc1N1CCN(CCC2Cc3ccccc3C2=O)CC1 (stereo not drawn)
a: not met

q: Threshold query (pKi >= 7) on O=C1CC2(CCCCC2)C(=O)N1CCN1CCN(c2cccc(Cl)c2)CC1
a: met

q: Threshold query (pKi >= 7) on COc1ccccc1N1CCN(CCCCOc2ccc3c4c(c(=O)oc3c2C)CCC4)CC1
a: not met

q: Threshold query (pKi >= 7) on O=C1C2C3C=CC(C3)C2C(=O)N1OCCCN1CCN(c2cccc(Cl)c2)CC1 (stereo not drawn)
a: not met

q: Threshold query (pKi >= 7) on CN1CCN(c2ccc3c(n2)-c2ccccc2C3)CC1
a: not met

q: Threshold query (pKi >= 7) on Cc1ccc2c(c1)nc(N1CCNCC1)n2Cc1ccccc1
a: not met
